target: recombinant human IL-6 (human, UniProt P05231 30-212); test: SPR, IL-6 on CM5 chip, Fab lysate, 25 C
Sequence (P05231 30-212 limits assumed): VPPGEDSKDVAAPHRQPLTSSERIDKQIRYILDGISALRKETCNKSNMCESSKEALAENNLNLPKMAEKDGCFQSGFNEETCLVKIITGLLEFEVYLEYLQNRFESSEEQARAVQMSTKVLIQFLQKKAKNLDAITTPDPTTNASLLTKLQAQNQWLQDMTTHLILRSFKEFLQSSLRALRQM
Listing of entries alongside the reported koff.
Measurement Type: koff (s⁻¹)

binder="anti-IL-6 Fab, heavy chain T63K (Fab, V domains shown, see m39) VH: EVQLVESGGGLVQPGGSLRLSCAASGFTFSPFAMSWVRQAPGKGLEWVAKISPGGSWTYYSDKVTGRFTFSLDTSKSTAYLQMNSLRAEDTAVYYCARQLWGYYALDIWGQGTLVTVSS VL: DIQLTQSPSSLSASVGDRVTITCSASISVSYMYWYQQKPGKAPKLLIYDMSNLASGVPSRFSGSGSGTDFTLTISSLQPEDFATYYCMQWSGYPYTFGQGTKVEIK" endpoint_value=0.00611
binder="anti-IL-6 Fab, heavy chain F27S (Fab, V domains shown, see m39) VH: EVQLVESGGGLVQPGGSLRLSCAASGSTFSPFAMSWVRQAPGKGLEWVAKISPGGSWTYYSDTVTGRFTFSLDTSKSTAYLQMNSLRAEDTAVYYCARQLWGYYALDIWGQGTLVTVSS VL: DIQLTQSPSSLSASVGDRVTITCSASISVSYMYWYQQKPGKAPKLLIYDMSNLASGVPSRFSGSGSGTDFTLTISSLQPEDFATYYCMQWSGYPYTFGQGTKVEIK" endpoint_value=0.00393
binder="anti-IL-6 Fab, heavy chain V64A (Fab, V domains shown, see m39) VH: EVQLVESGGGLVQPGGSLRLSCAASGFTFSPFAMSWVRQAPGKGLEWVAKISPGGSWTYYSDTATGRFTFSLDTSKSTAYLQMNSLRAEDTAVYYCARQLWGYYALDIWGQGTLVTVSS VL: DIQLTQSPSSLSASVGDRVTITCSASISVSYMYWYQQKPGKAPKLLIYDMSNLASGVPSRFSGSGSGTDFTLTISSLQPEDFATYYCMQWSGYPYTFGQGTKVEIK" endpoint_value=0.00643
